- test_system: Clostridium difficile toxin A (Clostridioides difficile …, UniProt P16154)
- protocol_details: SPR
- condition_notes: both partners purified
property_name: kon (M⁻¹ s⁻¹)
Record the value in M⁻¹ s⁻¹, omitting the unit from your answer.

Name the reported kon value associated with the binder A5.1m (VHH) VHH: QVKLEESGGGLVQAGGSLRLSCAASGRTFSMYRMGWFRQAPGKEREFVCVITRNGSSTYYADSVKGRFTCSRDNAKNTVYLQMNSLKPEDTALYYCAATSGSSYLDAAHVYDYWGQGTQVTVSS
950000

Name the reported kon value associated with the binder A20.1m (VHH) VHH: QVQLVESGGGLAQAGGSLRLSCAASGRTFSMDPMAWFRQPPGKEREFVCAGSSTGRTTYYADSVKGRFTCSRDNAKNTVYLQMNSLKPEDTAVYYCAAAPYGANWYRDEYAYWGQGTQVTVSS
640000

Name the reported kon value associated with the binder A26.8m (VHH) VHH: QVKLEESGGGLVQAGGSLRLSCAASERTFSRYPVAWFRQAPGAEREFVCVISSTGTSTYYADSVKGRFTCSRDNAKVTVYLQMNNLKREDTAVYFCAVNSQRTRLQDPNEYDYWGQGTQVTVSS
1e+06

Name the reported kon value associated with the binder A4.2m (VHH) VHH: QVKLEESGGGLVQAGGSLRLSCAASGRTFNTLSMGWFRQAPGKEREFVCAVSRSGGSTYYADSVKGRFTCSRDNAKNTVYLQMNSLKPEDTAVYYCAAAATKSNTTAYRLSFDYWGQGTQVTVSS
930000

// data source = paper PMC3227653
